- TEST_METHOD_NOTES: Antimicrobial activity against vancomycin-intermediate Staphylococcus aureus Mu50 ATCC 700699 measured after overnight incubation by microdilution broth method
- Format: functional, Staphylococcus aureus subsp. aureus Mu50
MEASUREMENT_TYPE: MIC90 (µM)
All answers are understood in µM, so give the number only.

CC(C)C[C@@H]1CN2C(=N1)SC(c1ccccc1)=C2c1ccccc1 : 24
CC(C)C[C@@H]1CN2C(c3ccc4ccccc4c3)=CSC2=N1 : 102
N=C(N)NCCC[C@@H]1CN2C(=N1)SC(c1ccccc1)=C2c1ccccc1 : 338
Cn1cc(C[C@@H]2CN3C(c4ccc5ccccc5c4)=CSC3=N2)c2ccccc21 : 40
c1ccc(C[C@@H]2CN3C(=N2)SC(c2ccccc2)=C3c2ccccc2)cc1 : 42
Cn1cc(C[C@@H]2CN3C(=N2)SC(c2ccccc2)=C3c2ccccc2)c2ccccc21 : 19
Oc1ccc(C[C@@H]2CN3C(=N2)SC(c2ccccc2)=C3c2ccccc2)cc1 : 40

// moving on: another record for MIC90
get_value(item= N=C(N)NCCC[C@@H]1CN2C(c3ccc4ccccc4c3)=CSC2=N1 , readout=MIC90) returns 184

* * *

- TEST_METHOD_NOTES: Cytotoxicity against HEK cells assessed as reduction in cell viability after 48 hrs by MTT assay
- Type: toxicity, cell-based, HEK293
- TEST_SETTINGS: human, read-out: MIC50
MEASUREMENT_TYPE: CC50 at 48 h (µM)
All answers are understood in µM, so give the number only.

Worked examples, 7 molecules total:
N=C(N)NCCC[C@@H]1CN2C(c3ccc4ccccc4c3)=CSC2=N1 : 257
N=C(N)NCCC[C@@H]1CN2C(=N1)SC(c1ccccc1)=C2c1ccccc1 : 100
c1ccc(C[C@@H]2CN3C(=N2)SC(c2ccccc2)=C3c2ccccc2)cc1 : 71
Cn1cc(C[C@@H]2CN3C(c4ccc5ccccc5c4)=CSC3=N2)c2ccccc21 : 20
Oc1ccc(C[C@@H]2CN3C(=N2)SC(c2ccccc2)=C3c2ccccc2)cc1 : 72
CC(C)C[C@@H]1CN2C(c3ccc4ccccc4c3)=CSC2=N1 : 36
CC(C)C[C@@H]1CN2C(=N1)SC(c1ccccc1)=C2c1ccccc1 : 56

// moving on: another record for CC50 at 48 h
get_value(item= Cn1cc(C[C@@H]2CN3C(=N2)SC(c2ccccc2)=C3c2ccccc2)c2ccccc21 , readout=CC50 at 48 h) returns 63

* * *

- TEST_METHOD_NOTES: Therapeutic index, ratio of IC50 for HEK cells to MIC90 for methicillin-resistant Staphylococcus aureus ATCC BAA-44
- Format: cell-based, HEK293
- TEST_SETTINGS: human, read-out: TI
Quick rule: selectivity ratio of at least 2 means YES, below that means NO.

Known results for compounds:
Oc1ccc(C[C@@H]2CN3C(=N2)SC(c2ccccc2)=C3c2ccccc2)cc1 : YES
N=C(N)NCCC[C@@H]1CN2C(=N1)SC(c1ccccc1)=C2c1ccccc1 : NO
N=C(N)NCCC[C@@H]1CN2C(c3ccc4ccccc4c3)=CSC2=N1 : YES
CC(C)C[C@@H]1CN2C(c3ccc4ccccc4c3)=CSC2=N1 : NO
c1ccc(C[C@@H]2CN3C(=N2)SC(c2ccccc2)=C3c2ccccc2)cc1 : YES
Cn1cc(C[C@@H]2CN3C(=N2)SC(c2ccccc2)=C3c2ccccc2)c2ccccc21 : YES

Textbook exercise: given the entry CC(C)C[C@@H]1CN2C(=N1)SC(c1ccccc1)=C2c1ccccc1 , state whether its selectivity ratio is greater than or equal to 2.
YES
